Kindly state log10 IC50 for each of the entries shown.
# Measured target: Mitogen-activated protein kinase 8 (Homo sapiens, UniProt P45983)
# Sequence (P45983 whole entry): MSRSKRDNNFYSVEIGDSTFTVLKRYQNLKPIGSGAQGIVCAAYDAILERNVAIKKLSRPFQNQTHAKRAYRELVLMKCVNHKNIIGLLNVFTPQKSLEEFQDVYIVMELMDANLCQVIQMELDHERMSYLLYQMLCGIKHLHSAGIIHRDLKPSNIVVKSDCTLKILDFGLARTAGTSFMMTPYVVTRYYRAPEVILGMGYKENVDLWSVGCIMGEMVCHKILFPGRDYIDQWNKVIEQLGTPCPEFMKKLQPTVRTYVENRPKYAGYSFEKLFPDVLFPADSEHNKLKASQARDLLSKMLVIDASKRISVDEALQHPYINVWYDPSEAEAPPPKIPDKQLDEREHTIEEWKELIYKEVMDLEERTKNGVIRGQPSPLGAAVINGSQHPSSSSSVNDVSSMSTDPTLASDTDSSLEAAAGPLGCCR
# Assay remarks: Inhibition of JNK1 using biotinylated ATF2 and ATP substrates by HTRF assay
Answers are given as log10 of IC50 in nM.

[[record]]
chemical_string = "O=C(Nc1cccc(Cl)c1N1CCN(CCc2ccccc2)CC1)c1ccc(Br)o1"
numeric_value = 2.95

[[record]]
chemical_string = "C#CCN1CCN(c2c(F)cccc2NC(=O)c2ccc(Br)o2)CC1"
numeric_value = 2.04

[[record]]
chemical_string = "O=C(Nc1cccc(Cl)c1N1CCN(Cc2ccccc2)CC1)c1ccc(Br)o1"
numeric_value = 2.94

[[record]]
chemical_string = "CCN1CCN(c2c(Cl)cccc2NC(=O)c2ccc(Br)o2)CC1"
numeric_value = 2.69

[[record]]
chemical_string = "O=C(Nc1cccc(Cl)c1N1CCN(Cc2ccco2)CC1)c1ccc(Br)o1"
numeric_value = 2.43

[[record]]
chemical_string = "C=CCN1CCN(c2c(Cl)cccc2NC(=O)c2cnc(Br)s2)CC1"
numeric_value = 2.52

[[record]]
chemical_string = "C=CCN1CCN(c2c(Cl)cccc2NC(=O)c2cccc(Br)c2)CC1"
numeric_value = 3.85

[[record]]
chemical_string = "Cc1cccc(NC(=O)c2ccc(Cc3ccccc3)o2)c1N1CCC2(CC1)OCCO2"
numeric_value = 3.51


// below: log10 IC50 requested for another compound
"O=C(Nc1cccc(Cl)c1N1CCN(C2CC2)CC1)c1ccc(Br)o1" yielded log10 IC50 of 2.26
